Procedure text: in vivo
Format: in vivo, BALB/cAnNCrl mice
Protocol conditions: male, BALB/cAnNCrl, mouse, in vivo, iv, 1.062 umol/kg, iv bolus, mice, Mean
*1 amine or outer side, *2 acyl side, *3 side chain or, on linkers, in order; H or OH if unused. Where a SMILES comes first, the peptide text is derived from it. [ ]: non-standard residue; d: D form. X1 = C#CCn1cc(C[C@H](N[*:1])C(=O)[*:2])c2ccccc21; NMeLeu(5-OH,4R) = CN[C@@H](C[C@@H](C)CO)C(=O)O; Phe(βR-OMe) = CO[C@H](c1ccccc1)[C@H](N)C(=O)O; NMeL = CN[C@@H](CC(C)C)C(=O)O
Property measured: clearance (mL/min/kg)
Kindly provide the numeric value in mL/min/kg only, without the unit symbol.

(Q) What value of clearance has been reported for the following molecule? C#CCn1cc(C[C@@H]2NC(=O)[C@H](C(C)C)NC(=O)[C@H](CC(C)C)N(C)C(=O)[C@H](C(C)C)NC(=O)[C@H]([C@H](OC)c3ccccc3)NC(=O)[C@H](C)NC(=O)[C@H](C[C@@H](C)CO)N(C)C2=O)c2ccccc21 [Compound 5] (cyclo(A[Phe(βR-OMe)]V[NMeL]V[X1][NMeLeu(5-OH,4R)]))
(A) 98.8

###

Measured target: ClpC1-NTD substrate, M. tuberculosis ClpC1P1P2 (Mycobacterium tuberculosis)
Procedure text: biochemical
Type: biochemical
Protocol conditions: Mtb; Measurement 1-4; read-out: 1-Dmax, single measurements
Property measured: 1-Dmax (percent substrate remaining at maximal degradation) (%)
Answer in %, number only, no unit symbol.

CO[C@H](c1ccccc1)[C@@H]1NC(=O)[C@H](C)NC(=O)[C@H](C[C@@H](C)CO)N(C)C(=O)[C@H](Cc2cn(Cc3cn(CCOCCOCCOCCOCCn4cc(Cn5cc(C[C@H]6C(=O)N(C)[C@@H](C[C@@H](C)CO)C(=O)N[C@@H](C)C(=O)N[C@@H]([C@H](OC)c7ccccc7)C(=O)N[C@@H](C(C)C)C(=O)N(C)[C@@H](CC(C)C)C(=O)N[C@@H](C(C)C)C(=O)N6C)c6ccccc65)nn4)nn3)c3ccccc23)N(C)C(=O)[C@H](C(C)C)NC(=O)[C@H](CC(C)C)N(C)C(=O)[C@H](C(C)C)NC1=O = 75.3
CO[C@H](c1ccccc1)[C@@H]1NC(=O)[C@H](C)NC(=O)[C@H](C[C@@H](C)CO)N(C)C(=O)[C@H](Cc2cn(C)c3ccccc23)NC(=O)[C@H](Cc2cn(CCOCCOCCn3cc(C[C@@H]4NC(=O)[C@H](CC(C)C)N(C)C(=O)[C@H](C(C)C)NC(=O)[C@H]([C@H](OC)c5ccccc5)NC(=O)[C@H](C)NC(=O)[C@H](C[C@@H](C)CO)N(C)C(=O)[C@H](Cc5cn(C)c6ccccc56)NC4=O)nn3)nn2)NC(=O)[C@H](CC(C)C)N(C)C(=O)[C@H](C(C)C)NC1=O = 77.4
CO[C@H](c1ccccc1)[C@@H]1NC(=O)[C@H](C)NC(=O)[C@H](C[C@@H](C)CO)N(C)C(=O)[C@H](Cc2cn(Cc3cn(CCCCCn4cc(Cn5cc(C[C@@H]6NC(=O)[C@H](C(C)C)NC(=O)[C@H](CC(C)C)N(C)C(=O)[C@H](C(C)C)NC(=O)[C@H]([C@H](OC)c7ccccc7)NC(=O)[C@H](C)NC(=O)[C@H](C[C@@H](C)CO)N(C)C6=O)c6ccccc65)nn4)nn3)c3ccccc23)NC(=O)[C@H](C(C)C)NC(=O)[C@H](CC(C)C)N(C)C(=O)[C@H](C(C)C)NC1=O = 27.5

Next, consider the following compound.
(Q) // query 1-Dmax (percent substrate remaining at maximal degradation) value for entry CO[C@H](c1ccccc1)[C@@H]1NC(=O)[C@H](C)NC(=O)[C@H](C[C@@H](C)CO)N(C)C(=O)[C@H](Cc2cn(C)c3ccccc23)N(C)C(=O)[C@H](Cc2cn(CCOCCOCCn3cc(C[C@@H]4NC(=O)[C@H](CC(C)C)N(C)C(=O)[C@H](C(C)C)NC(=O)[C@H]([C@H](OC)c5ccccc5)NC(=O)[C@H](C)NC(=O)[C@H](C[C@@H](C)CO)N(C)C(=O)[C@H](Cc5cn(C)c6ccccc56)N(C)C4=O)nn3)nn2)NC(=O)[C@H](CC(C)C)N(C)C(=O)[C@H](C(C)C)NC1=O
(A) 82.9

###

Test system: M. tuberculosis H37Rv (ATCC 27294)
Procedure text: microbe, parasite or virus in culture
Format: cell-based
Protocol conditions: Mycobacterium tuberculosis, single determinations; read-out: Mtb MIC
*1 amine or outer side, *2 acyl side, *3 side chain or, on linkers, in order; H or OH if unused. Where a SMILES comes first, the peptide text is derived from it. [ ]: non-standard residue; d: D form. X3 = C#CCOc1ccc([C@@H](OC)[C@H](N[*:1])C(=O)[*:2])cc1; X2 = C#CCn1cc(C[C@@H](C(=O)[*:2])N(C)[*:1])c2ccccc21; X1 = C#CCn1cc(C[C@H](N[*:1])C(=O)[*:2])c2ccccc21; NMeLeu(5-OH,4R) = CN[C@@H](C[C@@H](C)CO)C(=O)O; Phe(βR-OMe) = CO[C@H](c1ccccc1)[C@H](N)C(=O)O; Trp(1-Me) = Cn1cc(C[C@H](N)C(=O)O)c2ccccc21; NMeL = CN[C@@H](CC(C)C)C(=O)O
One threshold, 0.4 µM, splits the recorded MIC values: lower ones are true, equal or higher ones are false.

Example entries begin here.
CCCCCn1cc(C[C@@H]2NC(=O)[C@H](CC(C)C)N(C)C(=O)[C@H](C(C)C)NC(=O)[C@H]([C@H](OC)c3ccccc3)NC(=O)[C@H](C)NC(=O)[C@H](C[C@@H](C)CO)N(C)C(=O)[C@H](Cc3cn(C)c4ccccc34)N(C)C2=O)nn1 = false
C#CCn1cc(C[C@@H]2NC(=O)[C@H](C(C)C)NC(=O)[C@H](CC(C)C)N(C)C(=O)[C@H](C(C)C)NC(=O)[C@H]([C@H](OC)c3ccccc3)NC(=O)[C@H](C)NC(=O)[C@H](C[C@@H](C)CO)N(C)C2=O)c2ccccc21 [Compound 5] (cyclo(A[Phe(βR-OMe)]V[NMeL]V[X1][NMeLeu(5-OH,4R)])) = false
C#CCn1cc(C[C@H]2C(=O)N(C)[C@@H](C[C@@H](C)CO)C(=O)N[C@@H](C)C(=O)N[C@@H]([C@H](OC)c3ccccc3)C(=O)N[C@@H](C(C)C)C(=O)N(C)[C@@H](CC(C)C)C(=O)N[C@@H](C(C)C)C(=O)N2C)c2ccccc21 [Compound 26] (cyclo(A[Phe(βR-OMe)]V[NMeL]V[X2][NMeLeu(5-OH,4R)])) = false
CO[C@H](c1ccc(OCc2cn(CCCCCn3cc(COc4ccc([C@@H](OC)[C@@H]5NC(=O)[C@H](C)NC(=O)[C@H](C[C@@H](C)CO)N(C)C(=O)[C@H](Cc6cn(C)c7ccccc67)NC(=O)[C@H](C(C)C)NC(=O)[C@H](CC(C)C)N(C)C(=O)[C@H](C(C)C)NC5=O)cc4)nn3)nn2)cc1)[C@@H]1NC(=O)[C@H](C)NC(=O)[C@H](C[C@@H](C)CO)N(C)C(=O)[C@H](Cc2cn(C)c3ccccc23)NC(=O)[C@H](C(C)C)NC(=O)[C@H](CC(C)C)N(C)C(=O)[C@H](C(C)C)NC1=O = true
CO[C@H](c1ccccc1)[C@@H]1NC(=O)[C@H](C)NC(=O)[C@H](C[C@@H](C)CO)N(C)C(=O)[C@H](Cc2cn(C)c3ccccc23)N(C)C(=O)[C@H](Cc2cn(CCCCCn3cc(C[C@@H]4NC(=O)[C@H](CC(C)C)N(C)C(=O)[C@H](C(C)C)NC(=O)[C@H]([C@H](OC)c5ccccc5)NC(=O)[C@H](C)NC(=O)[C@H](C[C@@H](C)CO)N(C)C(=O)[C@H](Cc5cn(C)c6ccccc56)N(C)C4=O)nn3)nn2)NC(=O)[C@H](CC(C)C)N(C)C(=O)[C@H](C(C)C)NC1=O = false

(Q) Consider the compound CO[C@H](c1ccccc1)[C@@H]1NC(=O)[C@H](C)NC(=O)[C@H](C[C@@H](C)CO)N(C)C(=O)[C@H](Cc2cn(Cc3cn(CCOCCOCCOCCOCCn4cc(Cn5cc(C[C@H]6C(=O)N(C)[C@@H](C[C@@H](C)CO)C(=O)N[C@@H](C)C(=O)N[C@@H]([C@H](OC)c7ccccc7)C(=O)N[C@@H](C(C)C)C(=O)N(C)[C@@H](CC(C)C)C(=O)N[C@@H](C(C)C)C(=O)N6C)c6ccccc65)nn4)nn3)c3ccccc23)N(C)C(=O)[C@H](C(C)C)NC(=O)[C@H](CC(C)C)N(C)C(=O)[C@H](C(C)C)NC1=O . Is its MIC strictly less than 0.4 µM?
(A) true

(Q) Moving on to CO[C@H](c1ccccc1)[C@@H]1NC(=O)[C@H](C)NC(=O)[C@H](C[C@@H](C)CO)N(C)C(=O)[C@H](Cc2cn(Cc3cn(CCOCCOCCOCCn4cc(Cn5cc(C[C@@H]6NC(=O)[C@H](C(C)C)NC(=O)[C@H](CC(C)C)N(C)C(=O)[C@H](C(C)C)NC(=O)[C@H]([C@H](OC)c7ccccc7)NC(=O)[C@H](C)NC(=O)[C@H](C[C@@H](C)CO)N(C)C6=O)c6ccccc65)nn4)nn3)c3ccccc23)NC(=O)[C@H](C(C)C)NC(=O)[C@H](CC(C)C)N(C)C(=O)[C@H](C(C)C)NC1=O
(A) true

(Q) What about C#CCOc1ccc([C@@H](OC)[C@@H]2NC(=O)[C@H](C)NC(=O)[C@H](C[C@@H](C)CO)N(C)C(=O)[C@H](Cc3cn(C)c4ccccc34)NC(=O)[C@H](C(C)C)NC(=O)[C@H](CC(C)C)N(C)C(=O)[C@H](C(C)C)NC2=O)cc1 [SI-38] (cyclo(A[X3]V[NMeL]V[Trp(1-Me)][NMeLeu(5-OH,4R)])) ?
(A) false

From: paper PMC10914731
